- Assay system: OX2 receptor (Homo sapiens)
- Sequence (O43614 whole entry): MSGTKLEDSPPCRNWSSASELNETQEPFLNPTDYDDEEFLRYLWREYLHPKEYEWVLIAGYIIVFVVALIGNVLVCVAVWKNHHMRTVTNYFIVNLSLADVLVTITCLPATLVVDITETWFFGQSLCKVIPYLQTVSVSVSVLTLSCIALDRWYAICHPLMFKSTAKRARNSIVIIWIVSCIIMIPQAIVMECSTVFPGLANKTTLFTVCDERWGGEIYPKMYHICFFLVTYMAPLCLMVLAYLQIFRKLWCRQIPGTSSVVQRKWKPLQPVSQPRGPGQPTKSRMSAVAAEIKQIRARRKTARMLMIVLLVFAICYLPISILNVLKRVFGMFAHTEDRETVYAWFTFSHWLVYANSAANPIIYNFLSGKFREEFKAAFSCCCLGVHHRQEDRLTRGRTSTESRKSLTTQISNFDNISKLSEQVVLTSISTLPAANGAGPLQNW
- Procedure text: OX2 calcium mobilization functional assay
Metric name: pKd
Remember the convention: pKd equals -log10 of concentration in molar.

Input line: Find the recorded pKd belonging to CCCCOc1cc2c(cc1OC)CCN(CC(=O)NCc1ccccc1)C2Cc1ccc(OC)c(OC)c1 (stereo not shown) and report it.
Output line: 5.72

Input line: Quick one: pKd of COc1ccc(CC2c3cc(OC)c(OC)cc3CCN2CC(=O)N2CCCC(c3ccccc3)C2)cc1OC (stereo not shown) ?
Output line: 5.04

Input line: Suppose we examine the compound COc1ccc(CC2c3cc(OC)c(OC)cc3CCN2CC(=O)NCc2ccc(Cl)cc2)cc1OC (stereo not shown) ; what pKd value has been reported?
Output line: 5.64

Input line: Requested field: pKd. Item: CCCCCCNC(=O)Nc1ccc(CNC(=O)CN2CCc3cc(OC)c(OC)cc3C2Cc2ccc(OC)c(OC)c2)cc1 (stereo not shown)
Output line: 5.61

Input line: Fill in the blank: the reported pKd of COc1ccc(CC2c3cc(OC)c(OC)cc3CCN2CC(=O)NCc2ccc(F)cc2)cc1OC (stereo not shown) is ____.
Output line: 5.46

Input line: # query: pKd of entry CCCCCC(=O)Nc1ccc(CNC(=O)CN2CCc3cc(OC)c(OC)cc3C2Cc2ccc(OC)c(OC)c2)cc1 (stereo not shown)
Output line: 5.42

Input line: Give the measured pKd of COc1ccc(CC2c3cc(OCCC(C)C)c(OC)cc3CCN2CC(=O)NCc2ccccc2)cc1OC (stereo not shown) .
Output line: 5.41

Input line: I have this compound here, COc1cc2c(cc1O)C(Cc1ccc(OC)c(OC)c1)N(CC(=O)NCc1ccccc1)CC2 (stereo not shown) , and I need its recorded pKd.
Output line: 5.24

Input line: Give its pKd value. Item: COc1ccc(CC2c3cc(OC)c(OC)cc3CCN2CC(=O)Nc2ccccc2-c2ccccc2)cc1OC (stereo not shown)
Output line: 5.75

Input line: Requested field: pKd. Item: COc1ccc(CC2c3cc(OS(=O)(=O)c4ccccc4)c(OC)cc3CCN2CC(=O)NCc2ccccc2)cc1OC (stereo not shown)
Output line: 5.54
